Assay: Intrinsic clearance in human liver microsomes
Assay type: ADME, Microsome
The entries below come with measured microsomal CLint values attached.

- compound: "Cc1cccc(CNC(=O)[C@H]2C[C@H](c3nc(C)no3)CN(Cc3nc(-c4ccccc4)oc3C)C2)n1"
  microsomal CLint: "290 µL/min/mg"
- compound: "CC[C@H]1C[C@@H](C(=O)NCC2CCOCC2)CN(Cc2nc(-c3ccccc3)oc2C)C1"
  microsomal CLint: "226 µL/min/mg"
- compound: "Cc1oc(-c2ccccc2)nc1CN1CCCC(C(=O)NCC2CCOCC2)C1 (centres undefined)"
  microsomal CLint: "105 µL/min/mg"
- compound: "COC[C@@H]1C[C@@H](C(=O)NC[C@H]2CCCO2)CN(Cc2nc(N3CCOCC3)oc2C)C1"
  microsomal CLint: "41 µL/min/mg"
- compound: "CC[C@H]1C[C@H](C(=O)NCc2cccc(C)n2)CN(Cc2nc(-c3ccccc3)oc2C)C1"
  microsomal CLint: "304 µL/min/mg"
- compound: "CC[C@@H]1C[C@@H](C(=O)NC[C@@H]2CCCO2)CN(Cc2nc(N3CCOCC3)oc2C)C1"
  microsomal CLint: "131 µL/min/mg"
- compound: "COC[C@H]1C[C@@H](C(=O)NCc2cccc(C)n2)CN(Cc2nc(-c3ccccc3)oc2C)C1"
  microsomal CLint: "99.5 µL/min/mg"
- compound: "CC[C@@H]1C[C@@H](C(=O)NC[C@H]2CCCO2)CN(Cc2nc(-c3ccncn3)[nH]c2C)C1"
  microsomal CLint: "190 µL/min/mg"
- compound: "Cc1oc(-c2ccccc2)nc1CN1CCC[C@@H](C(=O)NCc2cccc(N)n2)C1"
  microsomal CLint: "49 µL/min/mg"

----------
Experiment: Oral bioavailability in rat
Format: ADME, organism-based
Settings: in vivo

- itemSmiles: "CC[C@@H]1C[C@@H](C(=O)NCc2cccc(C)n2)CN(Cc2nc(-c3ccccc3)oc2C)C1"
  unitOfMeasure: "%"
  bioavailability: 7

----------
Assay: Intrinsic clearance in human liver microsomes
Type: ADME, Microsome
We begin with a simple list: items and their reported microsomal CLint.
property: microsomal CLint (µL/min/mg)

- itemSmiles: "COC[C@H]1C[C@@H](C(=O)NC[C@H]2CCCO2)CN(Cc2nc(N3CCOCC3)oc2C)C1"
  property: "microsomal CLint"
  inequalityOperator: "<"
  recordedNumber: 8
- itemSmiles: "Cc1noc([C@@H]2C[C@@H](C(=O)NC[C@@H]3CCCO3)CN(Cc3nc(-c4ccccc4)oc3C)C2)n1"
  property: "microsomal CLint"
  inequalityOperator: "="
  recordedNumber: 182
- itemSmiles: "CC[C@@H]1C[C@@H](C(=O)NCC2CCOCC2)CN(Cc2nc(N3CCOCC3)oc2C)C1"
  property: "microsomal CLint"
  inequalityOperator: "="
  recordedNumber: 142
- itemSmiles: "Cc1oc(-c2ccccc2)nc1CN1C[C@H](C(=O)NCc2cccc(N)n2)C[C@@H](c2ccccc2)C1"
  property: "microsomal CLint"
  inequalityOperator: ">"
  recordedNumber: 300

----------
Assay: Intrinsic clearance in human liver microsomes
Type: ADME, Microsome

- itemSmiles: "COC[C@@H]1C[C@@H](C(=O)NC[C@H]2CCCO2)CN(Cc2nc(-c3ccccc3)oc2C)C1"
  inequalityOperator: "="
  microsomal CLint / µL/min/mg: 233
- itemSmiles: "Cc1cccc(CNC(=O)[C@@H]2C[C@@H](c3nnc(C)o3)CN(Cc3nc(-c4ccccc4)oc3C)C2)n1"
  inequalityOperator: "="
  microsomal CLint / µL/min/mg: 290
- itemSmiles: "CC[C@@H]1C[C@@H](C(=O)NC[C@H]2CCCO2)CN(Cc2nc(-c3ccccc3)oc2C)C1"
  inequalityOperator: ">"
  microsomal CLint / µL/min/mg: 320
- itemSmiles: "CC[C@@H]1C[C@@H](C(=O)NCc2cccc(N)n2)CN(Cc2nc(-c3ccccc3)oc2C)C1"
  inequalityOperator: "="
  microsomal CLint / µL/min/mg: 281
- itemSmiles: "COC[C@H]1C[C@H](C(=O)NCc2cccc(C)n2)CN(Cc2nc(-c3ccccc3)oc2C)C1"
  inequalityOperator: "="
  microsomal CLint / µL/min/mg: 304
- itemSmiles: "COC[C@@H]1C[C@@H](C(=O)NCC2CCOCC2)CN(Cc2[nH]c(-c3ccncn3)nc2C)C1"
  inequalityOperator: "="
  microsomal CLint / µL/min/mg: 63
